Tested on: CP325
assay-details: qHTS profiling for inhibitors of Plasmodium falciparum proliferation (AID 504749); note: nearly all actives have a fitted effect of over 60% in size
test-parameters: P. falciparum in erythrocytes, SYBR Green DNA, 72 h; series mostly up to 28.7 µM
Inconclusive results are not listed. Activity calls are given as the source filed them. Calls come from the whole dose curve; as a rule, active = well fitted inhibition curve with a large enough effect; inconclusive = small, poorly fitted or top-dose-only effect; inactive = flat fitted curve, though single readings scatter.
Choose the fitting class; nothing outside YES for active, NO for inactive is accepted.

Use these answered entries as a reference point.
- compound: "C=C1C(=O)O[C@@H]2[C@@H]1CC/C(C)=C\\CC[C@@]1(C)O[C@H]21"
  class-name: "NO"
- compound: "O=C(OC[C@@H]1O[C@@](O)(COC(=O)c2cccnc2)[C@H](OC(=O)c2cccnc2)[C@H]1OC(=O)c1cccnc1)c1cccnc1"
  class-name: "NO"
- compound: "CCCCC(=O)OCC(=O)[C@]1(O)Cc2c(O)c3c(c(O)c2[C@H](OC2CC(NC(=O)C(F)(F)F)C(O)C(C)O2)C1)C(=O)c1c(OC)cccc1C3=O (stereo partly drawn)"
  class-name: "YES"
- compound: "CC(C)(C)C(=O)OCC(=O)C1CCC2C3CCC4=CC(=O)CCC4(C)C3CCC12C (stereo not drawn)"
  class-name: "NO"
- compound: "CC(=O)NC1[C@H]([C@H](O)[C@H](O)CO)OC(C(=O)O)=C[C@H]1N=C(N)N (stereo partly drawn)"
  class-name: "NO"
- compound: "NC(C(=O)O)c1ccc(O)cc1 (stereo not drawn)"
  class-name: "NO"
- compound: "CNC1CCc2cc(OC)c(OC)c(OC)c2-c2ccc(OC)c(=O)cc21 (stereo not drawn)"
  class-name: "NO"
- compound: "CN1[C@H]2CC(OC(=O)[C@H](CO)c3ccccc3)C[C@H]1[C@H]1O[C@H]12 (stereo partly drawn)"
  class-name: "NO"
- compound: "O=c1ccn(C2OC(COP(=O)(O)OC3C(CO)OC(n4ccc(=O)[nH]c4=O)C3O)C(O)C2O)c(=O)[nH]1 (stereo not drawn)"
  class-name: "NO"
- compound: "Cc1cc2nc3c(=O)[nH]c(=O)nc-3n(CC(O)C(O)C(O)COP(=O)(O)O)c2cc1C (stereo not drawn)"
  class-name: "NO"

Query: Returns: the outcome recorded for NC(=O)C1CC2(NC(=O)NC2=O)c2cc(F)ccc2O1 (stereo not drawn) in this assay.
Reply: NO

Query: Returns: the outcome recorded for `C/C=C1/NN(CCCN2CCN(c3cccc(Cl)c3)CC2)C(=O)N1CCOc1ccccc1` in this assay.
Reply: NO

Query: Returns: the outcome recorded for O=C1NC(=O)C2C3C=CC(C3)C12 (stereo not drawn) in this assay.
Reply: NO

Query: Returns: the outcome recorded for Cc1cn([C@H]2CC(F)[C@@H](CO)O2)c(=O)[nH]c1=O (stereo partly drawn) in this assay.
Reply: NO

Query: Returns: the outcome recorded for `Cc1cnc(C(=O)O)cn1` in this assay.
Reply: NO

Query: Returns: the outcome recorded for `CO/N=C(/C(=O)N[C@@H]1C(=O)N2C(C(=O)O)=C(C[n+]3ccc(N)n3CCO)CS[C@H]12)c1csc(N)n1` in this assay.
Reply: NO

Query: Returns: the outcome recorded for `CC[C@H](C)[C@H]1O[C@]2(CC[C@@H]1C)C[C@@H]1C[C@@H](C/C=C(\C)[C@H](O[C@@H]3C[C@H](OC)[C@H](O[C@@H]4C[C@H](OC)[C@@H](O)[C@H](C)O4)[C@H](C)O3)[C@@H](C)/C=C/C=C3\CO[C@@H]4[C@H](O)C(C)=C[C@@H](C(=O)O1)[C@]34O)O2` in this assay.
Reply: YES

Query: Returns: the outcome recorded for Cc1ccc(/C=C2/C(=O)C3(C)CCC2C3(C)C)cc1 (stereo not drawn) in this assay.
Reply: NO
